Where do the numbers come from? From patent US10221174B2.

Test system: RS4;11 cells
EXPERIMENT_NOTES: RS4;11 cell viability, CCK-8 assay
Format: cell-based
TEST_PARAMETERS: Homo sapiens, RS4-11, 96 h, CCK-8, 4 days, read-out: RS4, 11 IC50 (Bcl-2 dependent)
MEASUREMENT_KIND: IC50 (nM)
Return type: number; implicit unit nM.

{"columns": ["COMPOUND", "REPORTED_MEASUREMENT"],
 "data": [
  ["O=C(NS(=O)(=O)c1ccc(NCC2CCOCC2)c([N+](=O)[O-])c1)c1ccc(N2CCN(CC3=C(c4ccc(Cl)cc4)CC4(CCC4)CC3)CC2)cc1Oc1cnc2[nH]ccc2c1", 26]
]}

Reported IC50 for O=C(NS(=O)(=O)c1cc([N+](=O)[O-])c2cn(CC3CCOCC3)nc2c1)c1ccc(N2CCN(CC3=C(c4ccc(Cl)cc4)CC4(CCC4)CC3)CC2)cc1Oc1cnc2[nH]ccc2c1 was 55

Sample O=C(NS(=O)(=O)C1=CC2C(=O)N(C3CCOCC3)CC2C([N+](=O)[O-])=C1)c1ccc(N2CCN(CC3=C(c4ccc(Cl)cc4)CC4(CCC4)CC3)CC2)cc1Oc1cnc2[nH]ccc2c1 (stereo not shown) ; IC50 observed: 19

The compound O=C(NS(=O)(=O)c1ccc(NC[C@H]2COCCO2)c([N+](=O)[O-])c1)c1ccc(N2CCN(CC3=C(c4ccc(Cl)cc4)CC4(CCC4)CC3)CC2)nc1Oc1cnc2[nH]ccc2c1 showed IC50 equal to 968

Input O=C(NS(=O)(=O)c1ccc(NCC2CCOCC2)c([N+](=O)[O-])c1)c1ccc(N2CCN(CC3=C(c4ccc(Cl)cc4)CC4(CCC4)CC3)CC2)nc1Oc1cnc2[nH]ccc2c1 . Output IC50: 1380

Please fill in: IC50 reported for O=C(NS(=O)(=O)c1cc([N+](=O)[O-])c(NC[C@H]2COCCO2)cc1F)c1ccc(N2CCN(CC3=C(c4ccc(Cl)cc4)CC4(CCC4)CC3)CC2)cc1Oc1cnc2[nH]ccc2c1 = 7160

Briefly, IC50 measured for CNc1ccc(S(=O)(=O)NC(=O)c2ccc(N3CCN(CC4=C(c5ccc(Cl)cc5)CC5(CCC5)CC4)CC3)cc2Oc2cnc3[nH]ccc3c2)cc1[N+](=O)[O-] : 32

In plain terms, O=C(NS(=O)(=O)c1cc([N+](=O)[O-])c2[nH]c(C3CC3)nc2c1)c1ccc(N2CCN(CC3=C(c4ccc(Cl)cc4)CC4(CCC4)CC3)CC2)cc1Oc1cnc2[nH]ccc2c1 has a documented IC50 of 65

Measured IC50, O=C(NS(=O)(=O)c1cc([N+](=O)[O-])c2cn(C3CCOCC3)nc2c1)c1ccc(N2CCN(CC3=C(c4ccc(Cl)cc4)CC4(CCC4)CC3)CC2)cc1Oc1cnc2[nH]ccc2c1 : 11

Per the records, this compound ( COCCn1cc(S(=O)(=O)NC(=O)c2ccc(N3CCN(CC4=C(c5ccc(Cl)cc5)CC5(CCC5)CC4)CC3)cc2Oc2cnc3[nH]ccc3c2)cc1[N+](=O)[O-] ) has IC50 equal to 611
